Consider the following molecules; for each one, report its photoluminescence quantum yield.
# assay.procedure: photoluminescence quantum yield (fraction); solvent given as SMILES
# test.context: in ClC(Cl)Cl
Output spec: single numeric token, no unit.

Input line: // photoluminescence quantum yield lookup, key: CC(C)(C)c1ccc2oc3nc4oc5ccc(N6c7ccccc7Oc7ccccc76)cc5c4cc3c2c1
Output line: 0.057

Input line: Proceed to CCCCc1ccc(-n2c3c4cc(F)ccc4nc(-c4ccc(OC)cc4)c3c3c2c2c(-c4ccc(OC)cc4)nc4ccc(F)cc4c2n3-c2ccc(CCCC)cc2)cc1
Output line: 0.19

Input line: Proceed to O=C1c2ccccc2C2=Cc3ccccc3B(O)N12
Output line: 1

Input line: Proceed to Cc1cc(-c2ccc(-n3c4ccccc4c4ccccc43)cc2)nc(-c2ccc(-n3c4ccccc4c4ccccc43)cc2)n1
Output line: 0.61

Input line: Proceed to CC(C)(C)c1ccc(-c2cc3c4c(c2)CCc2cc(-c5ccc(C(C)(C)C)cc5)cc(c2-4)CC3)cc1
Output line: 0.53

Input line: Proceed to Cc1cc(C(F)(F)F)nc2c1ccc1nc(-c3ccc(F)c(F)c3)cn12
Output line: 0.96

Input line: Proceed to COc1ccc(C(=O)NN2C3=C(CC4=C2CCCC4=O)C(=O)CCC3)cc1
Output line: 0.57

Input line: Proceed to CC1(C)CC(/N=C/c2ccc3ccc4cccc5ccc2c3c45)CC(C)(C)N1[O]
Output line: 0.02

Input line: Proceed to CCCCCCC(CCCCCC)N1C(=O)c2cccc3c(-c4ccc(N(C)C)cc4)ccc(c23)C1=O
Output line: 0.64

Input line: Proceed to CCC1=C(C)C2=C(c3cc(C4=C5C(C)=C(CC)C(C)=[N+]5[B-](F)(F)n5c(C)c(CC)c(C)c54)cc(C4=C5C(C)=C(CC)C(C)=[N+]5[B-](F)(F)n5c(C)c(CC)c(C)c54)c3)c3c(C)c(CC)c(C)n3[B-](F)(F)[N+]2=C1C
Output line: 0.88

Input line: Proceed to N#CC1=CC=CC(C#N)=P1(c1ccccc1)c1ccccc1
Output line: 0.92

Input line: Proceed to Cc1ccc(C2=C3C=CC(/C=C/c4ccccc4)=[N+]3[B-](F)(F)n3c(Cl)ccc32)cc1
Output line: 0.68

Input line: Proceed to Cc1nc(-c2ccc(-n3c4ccccc4c4ccccc43)cc2)cc(-c2ccc(-n3c4ccccc4c4ccccc43)cc2)n1
Output line: 0.61

Input line: Proceed to F[B-]1(F)n2c(Nc3cccc4cccnc34)ccc2C(c2ccccc2)=C2C=CC(Cl)=[N+]21
Output line: 0.01

Input line: Proceed to CC(C)(C)c1ccc2c(c1)oc1nc3oc4ccc(-n5c6ccccc6c6ccccc65)cc4c3cc12
Output line: 0.075

Input line: Proceed to [C-]#[N+]c1ccc(-c2ccc(N)cc2)cc1
Output line: 0.2

Input line: Proceed to CCCCC1(c2ccc(OC)cc2)Nc2ccccc2N=C1c1ccc(OC)cc1 (stereo not given)
Output line: 0.52

Input line: Proceed to CN(C)c1ccc(C2=Cc3c4ccccc4cc[n+]3[B-](F)(F)O2)cc1
Output line: 0.743

Input line: Proceed to COc1ccc(-c2ccc(-c3c4c(nc5ccccc35)-c3cc5c(cc3CC4)-c3nc4ccccc4c(-c4ccc(-c6ccc(OC)cc6)cc4)c3CC5)cc2)cc1
Output line: 0.827

Input line: Proceed to c1ccc(-c2ccnc(-c3ccccc3)n2)cc1
Output line: 0.51

Input line: Proceed to Cc1cc(C)c(C2=C3C=CC4=[N+]3[B-]3(Oc5ccccc54)Oc4ccccc4-c4ccc2n43)c(C)c1 (stereo not given)
Output line: 0.72

Input line: Proceed to CCC1=C(C)C(=O)n2c1cc1c(CCC(=O)O)c(C)c(C)n1c2=O
Output line: 1

Input line: Proceed to CCn1c2ccccc2c2cc(/C=C3\C(=O)c4ccccc4S3(=O)=O)ccc21
Output line: 0.04

Input line: Proceed to F[B-]1(F)n2c(ccc2-c2ccccc2)C(c2ccc(I)cc2)=C2C=CC(c3ccccc3)=[N+]21
Output line: 0.2

Input line: Proceed to O[Si](c1c2ccccc2cc2ccccc12)(c1c2ccccc2cc2ccccc12)c1c2ccccc2cc2ccccc12
Output line: 0.015

Input line: Proceed to N#Cc1cc2ccccc2oc1=N
Output line: 0.0946

Input line: Proceed to c1csc(-c2cnc(-c3cccs3)c3nonc23)c1
Output line: 0.35

Input line: Proceed to CC(=O)O[B-]1(OC(C)=O)OC(/C=C/c2cccc3ccccc23)=CC(/C=C/c2cccc3ccccc23)=[O+]1
Output line: 0.73

Input line: Proceed to CC(=O)OCCN1C(=O)c2cccc3c(Oc4ccc(C#N)cc4)ccc(c23)C1=O
Output line: 0.37

Input line: Proceed to CCCCN1C(=O)c2ccc3c4ccc5c6c(ccc(c7ccc(c2c37)C1=O)c64)C(=O)N(CCCC)C5=O
Output line: 0.98

Input line: Proceed to Cc1ccc(/C2=c3\cc/c(o3)=C(\c3ccc(C)cc3)c3ccc([nH]3)-c3ccc4n3[P-](=O)(=O)[N+]3=C(C=CC3=C4c3ccco3)c3ccc2[nH]3)cc1
Output line: 0.09

Input line: Proceed to CCCCCCN1C(=O)c2cccc3c(-c4ccc(-c5ccc6c7c(cccc57)C(=O)N(CCCCCC)C6=O)s4)ccc(c23)C1=O
Output line: 0.15

Input line: Proceed to CN(C)c1ccc(/C=C2\CC/C(=C\c3ccc(N(C)C)cc3)C2=O)cc1
Output line: 0.13

Input line: Proceed to CN(C)c1ccc2nc(-c3ccc(C=C4C(=O)c5ccccc5C4=O)cc3)sc2c1
Output line: 0.35

Input line: Proceed to CCCCCCN1C(=O)c2cccc3cc(/N=C\c4c[nH]c5c4ccc4ccccc45)cc(c23)C1=O
Output line: 0.073

---

Consider the following compounds; for each one, report its photoluminescence quantum yield.
# assay.procedure: photoluminescence quantum yield (fraction); solvent given as SMILES
# test.context: in CC(C)=O

Input line: // photoluminescence quantum yield lookup, key: Nc1ccccc1C(=O)O
Output line: 0.31

Input line: Proceed to CCC1=C(C)C2=C(C)c3cccn3[B-](F)(F)[N+]2=C1C
Output line: 0.79

Input line: Proceed to Cn1cc(-c2nc3ccccc3nc2/C=C/N2CCCC2)c2ccccc21
Output line: 0.456

Input line: Proceed to c1ccc(-c2nn(-c3ccccc3)c3nc4ccc(-n5c6ccccc6c6ccccc65)cc4cc23)cc1
Output line: 0.72

Input line: Proceed to O=P1(c2ccccc2)C(c2cc(C(F)(F)F)cc(C(F)(F)F)c2)=Cc2c3ccc4cccc5ccc(c6cc(-c7ccccc7)n1c26)c3c45 (configuration not stated)
Output line: 0.64

Input line: Proceed to CC(=O)O[B-]1(OC(C)=O)OC(/C=C/c2cccc3ccccc23)=CC(/C=C/c2cccc3ccccc23)=[O+]1
Output line: 0.58

Input line: Proceed to O=C1/C(=C/C=C/c2cc3c4c(c2)CCCN4CCC3)CC/C1=C\C=C\c1cc2c3c(c1)CCCN3CCC2
Output line: 0.092

Input line: Proceed to CC1=CC(C)=[N+]2C1=C(c1ccc(N(C)C)cc1)c1c(C)cc(C)n1[B-]2(F)F
Output line: 0.009

Input line: Proceed to CCC1=C(C)C2=Cc3cc(I)cn3[B-](F)(F)[N+]2=C1C
Output line: 0.063

Input line: Proceed to CCN(CC)c1ccc2cc(/C=C/C3=C4CC/C(=C\c5cc6ccc(N(CC)CC)cc6oc5=O)C4=[O+][B-](F)(F)O3)c(=O)oc2c1
Output line: 0.18

Input line: Proceed to CN(C)c1ccc(C#Cc2ccc(C=O)cc2)cc1
Output line: 0.047

Input line: Proceed to O=[N+]([O-])c1ccc(NCCNCc2c3ccccc3cc3ccccc23)c([N+](=O)[O-])c1
Output line: 0.0024

Input line: Proceed to COc1ccc(-c2nc3ccccc3nc2/C=C/N2CCCC2)s1
Output line: 0.209

Input line: Proceed to CCOC(=O)/C(C#N)=C\c1ccc2c(c1)c1ccccc1n2-c1ccc(C)cc1
Output line: 0.025

Input line: Proceed to CN(C)c1ccc(/C=C2\CC/C(=C\c3ccc(N(C)C)cc3)C2=O)cc1
Output line: 0.15

Input line: Proceed to CON(OC)c1cc2c3cc(-c4c(C)cc(C)cc4C)cc4c5cc(-c6c(C)cc(C)cc6C)cc6c7cc(B(c8c(C)cc(C)cc8C)c8c(C)cc(C)cc8C)cc8c9cc(-c%10c(C)cc(C)cc%10C)cc%10c%11cc(-c%12c(C)cc(C)cc%12C)cc%12c(c1)c2c1c(c43)c(c65)c(c78)c(c9%10)c1c%11%12
Output line: 0.05

Input line: Proceed to COc1ccccc1C1=C2C(C)=CC(C)=[N+]2[B-](F)(F)n2c(C)cc(C)c21
Output line: 0.78

---

# assay.procedure: photoluminescence quantum yield (fraction); solvent given as SMILES
# test.context: in ClC(Cl)Cl
value.kind: photoluminescence quantum yield
Output spec: single numeric token, no unit.

Input line: // photoluminescence quantum yield lookup, key: CON(OC)c1cc2c3cc(-c4c(C)cc(C)cc4C)cc4c5cc(-c6c(C)cc(C)cc6C)cc6c7cc(B(c8c(C)cc(C)cc8C)c8c(C)cc(C)cc8C)cc8c9cc(-c%10c(C)cc(C)cc%10C)cc%10c%11cc(-c%12c(C)cc(C)cc%12C)cc%12c(c1)c2c1c(c43)c(c65)c(c78)c(c9%10)c1c%11%12
Output line: 0.46

Input line: Proceed to CCCCCCCCN1c2ccc(C#Cc3ccc(OC)cc3)cc2Sc2cc(C=O)ccc21
Output line: 0.58

Input line: Proceed to c1cc2cc(c1)c1cccc(c1)c1cccc(c1)c1cccc(c1)c1cccc(c1)c1cccc2c1
Output line: 0.06

Input line: Proceed to CCC(=O)c1ccc2cc(N(C)C)ccc2c1
Output line: 0.88

Input line: Proceed to CC[Si](C)(C)c1cc2ccc3cccc4ccc(c1C(=O)NC(C)(C)C)c2c34
Output line: 0.156

Input line: Proceed to CN(C)c1ccc2nc(-c3ccc(C(=O)OC[C@H](NC(=O)OC(C)(C)C)C(=O)OCc4ccccc4)cc3)sc2c1
Output line: 0.98

Input line: Proceed to CCC1=C(C)C(=O)n2c1cc1c(C)c(CC)c(C)n1c2=O
Output line: 1

Input line: Proceed to CCN(CC)c1ccc2cc(/C=C/C3=C4CC/C(=C\c5cc6ccc(N(CC)CC)cc6oc5=O)C4=[O+][B-](F)(F)O3)c(=O)oc2c1
Output line: 0.22
